system: HER3ss-Gluc; assay: HER3ss assay; format: cell-based; conditions: HEK-293T T-rex cells, transient transfection, doxycycline, 24 h; read-out: HER3 ss IC50
pIC50: −log10 of the molar value. Peptide text beside a SMILES is read from it.
observable: pIC50

INSERT INTO assay_data (compound, meas_value) VALUES
  ('COc1ccc(Cn2cc(C[C@H]3C(=O)N[C@@H](CC(C)C)C(=O)N(C)[C@@H](C)C(=O)O[C@H](CCC#N)C(=O)N[C@@H](CC(C)C)C(=O)N(C)[C@@H](CC(C)C)C(=O)N[C@@H](CC(C)C)C(=O)N3C)c3ccccc32)cc1 [C-31] (HELM PEPTIDE1{L.[meA].[N#CCC[C@@H](O[*:1])C(=O)[*:2]].L.[meL].L.[COc1ccc(Cn2cc(C[C@@H](C(=O)[*:2])N(C)[*:1])c3ccccc32)cc1]}$PEPTIDE1,PEPTIDE1,1:R1-7:R2$$$V2.0)', 6.58);
